biological target: human recombinant adrenergic α2A receptor (Homo sapiens, UniProt P08913); construct: expressed in transfected cells; host or cells: insect Sf9 cells; assay: Adrenergic α2A radioligand binding ([3H]MK-912); details: read-out: Adrenergic (0.1 μM) a2A, percent inhibition of specific binding; compound at 0.1 μM; 1 nM [3H]MK-912
Sequence (P08913 whole entry): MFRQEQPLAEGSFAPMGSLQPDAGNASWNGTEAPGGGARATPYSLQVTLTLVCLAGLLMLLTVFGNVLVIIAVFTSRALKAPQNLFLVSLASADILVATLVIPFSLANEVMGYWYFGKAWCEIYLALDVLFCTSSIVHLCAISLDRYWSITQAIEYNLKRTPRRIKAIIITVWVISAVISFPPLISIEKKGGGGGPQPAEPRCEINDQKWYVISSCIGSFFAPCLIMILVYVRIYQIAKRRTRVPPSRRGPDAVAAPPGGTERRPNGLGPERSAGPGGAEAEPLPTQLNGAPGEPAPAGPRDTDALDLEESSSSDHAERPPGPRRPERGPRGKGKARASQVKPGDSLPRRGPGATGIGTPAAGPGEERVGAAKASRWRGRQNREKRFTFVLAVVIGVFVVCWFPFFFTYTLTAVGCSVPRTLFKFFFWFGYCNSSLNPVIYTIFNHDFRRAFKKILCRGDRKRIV
Output yes (1) for inhibition at 0.1 µM not less than 90%; output no (0) otherwise.

1. Cc1ccc2c(c1)c1c(n2-c2ccccc2-c2cccn2C)CCN(C)C1 ... yes (1)
2. Cc1csc(-c2cscc2-n2c3c(c4cc(C)ccc42)CN(C)CC3)c1 ... yes (1)
3. Cc1ccc2c(c1)c1c(n2-c2ccccc2-c2ccc3c(ccn3C)c2)CCN(C)C1 ... yes (1)
4. Cc1ccc2c(c1)c1c(n2-c2ccccc2-c2cn[nH]c2)CCN(C)C1 ... no (0)
5. CNC(=O)c1cccc(-c2ccc(-n3c4c(c5cc(C)ccc53)CN(C)CC4)nc2)c1 ... no (0)
6. COc1ccc(-c2cscc2-n2c3c(c4cc(C)ccc42)CN(C)CC3)cc1 ... yes (1)
7. Cc1ccc2c(c1)c1c(n2-c2cscc2-c2ccc3c(ccn3C)c2)CCN(C)C1 ... yes (1)
